# experimental_target: Hmlalpha2 (UniProt P0CY09)
# Sequence: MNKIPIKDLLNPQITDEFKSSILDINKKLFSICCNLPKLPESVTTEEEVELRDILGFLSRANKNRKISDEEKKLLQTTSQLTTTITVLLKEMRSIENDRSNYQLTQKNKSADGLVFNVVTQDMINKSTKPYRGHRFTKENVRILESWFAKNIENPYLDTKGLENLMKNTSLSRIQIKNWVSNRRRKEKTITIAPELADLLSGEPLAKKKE
# assay_procedure: PBM E-score (8-mer binding enrichment) (E-score (-0.5 to 0.5)); higher = stronger / more preferred TF binding
# condition_label: protein concentration: 200 nM; construct: GST-full length
The full ranking holds about 33,000 sequences; the median of “E-score (-0.5 to 0.5)” is about -0.04, and the highest 2% start at about 0.36. For the sample, the highest values were picked, then their nearest neighbours and some sequences at random.
metric_name: PBM E-score

| query_sequence | metric_name | result |
| --- | --- | --- |
| GGGGAGTA | PBM E-score | -0.225 |
| AAGCATGG | PBM E-score | -0.112 |
| AACCATGC | PBM E-score | -0.0458 |
| GCAAGCGA | PBM E-score | 0.0703 |
| ATTAACTC | PBM E-score | 0.216 |
| TTACAAAA | PBM E-score | 0.266 |
| ATTAACAC | PBM E-score | 0.455 |
| ACAGTAAG | PBM E-score | 0.064 |
| GTTCTGCA | PBM E-score | 0.104 |
| AGAACGAC | PBM E-score | -0.0288 |
| CTCTACAG | PBM E-score | 0.0676 |
